- system_under_test: Aβ40 (UniProt P05067 672-711)
- Sequence (P05067 672-711 limits assumed): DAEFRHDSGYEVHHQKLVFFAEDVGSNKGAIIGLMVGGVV
- protocol_summary: cell-based or functional assay
Square brackets hold non-standard residues; d marks the D form.
reported_endpoint: Inhibition at 1:1 (ThT assay, Aβ:cyclic peptide)
Could you kindly put the unit after your number?

Example binders with recorded Inhibition at 1:1 (ThT assay, Aβ:cyclic peptide):
cyclo([dL]L[dW]A[dS]K) (SMILES CC(C)C[C@@H]1NC(=O)[C@@H](CC(C)C)NC(=O)[C@H](CCCCN)NC(=O)[C@@H](CO)NC(=O)[C@H](C)NC(=O)[C@@H](Cc2c[nH]c3ccccc23)NC1=O) [[lLwAsK]: Cyclo-D-leucine-L-leucine-D-tryptophan-L-alanine-D-serine-L-lysine] :: 73%
cyclo([dA]L[dW]H[dS]K) (SMILES CC(C)C[C@@H]1NC(=O)[C@@H](C)NC(=O)[C@H](CCCCN)NC(=O)[C@@H](CO)NC(=O)[C@H](Cc2c[nH]cn2)NC(=O)[C@@H](Cc2c[nH]c3ccccc23)NC1=O) [[aLwHsK]: Cyclo-D-alanine-L-leucine-D-tryptophan-L-histidine-D-serine-L-lysine] :: 53%

Moving on to another binder below.
Endpoint output: Inhibition at 1:1 (ThT assay, Aβ:cyclic peptide) of cyclo([dL]L[dW]H[dS]K) (SMILES CC(C)C[C@@H]1NC(=O)[C@@H](CC(C)C)NC(=O)[C@H](CCCCN)NC(=O)[C@@H](CO)NC(=O)[C@H](Cc2c[nH]cn2)NC(=O)[C@@H](Cc2c[nH]c3ccccc23)NC1=O) [[lLwHsK]: Cyclo-D-leucine-L-leucine-D-tryptophan-L-histidine-D-serine-L-lysine] . Value? 60%
